Tested target: UniProtKB P04585
Procedure details: biochemical
Run conditions: Table 12; HIV-1 protease; read-out: Ki
pKi: −log10 of the molar value.
Entries and their measured pKi follow.

Below, 4 compounds whose answers are already recorded.
COC(=O)NCCCC(C)(C)CN(C[C@@H](O)[C@H](Cc1ccccc1)NC(=O)O[C@H]1CO[C@H]2OCC[C@H]21)S(=O)(=O)c1ccc2c(c1)OCCO2 [Compound 265]; > 9.00
CC(=O)CCC(C)(C)CN(CC(O)[C@H](Cc1ccccc1)NC(=O)OC1COC2OCCC12)S(=O)(=O)c1cccc(N)c1 (stereo partly drawn) [Compound 253]; > 9.00
COc1ccc(S(=O)(=O)N(CC(O)[C@H](Cc2ccccc2)NC(=O)OC2COC3OCCC23)CC(C)(C)CCCC(C)=O)cc1 (stereo partly drawn) [Compound 259]; > 9.00
COc1ccc(S(=O)(=O)N(CCC(C)=O)C[C@@H](O)[C@H](Cc2ccccc2)NC(=O)OC(C)(C)C)cc1 [Compound 279]; 7.00 to 8.00

Ask | What value of measured pKi is listed for COc1ccc(S(=O)(=O)N(CCCCC#N)C[C@@H](O)[C@H](Cc2ccccc2)NC(=O)O[C@H]2CCOC2)cc1 [Compound 26] ?
Reply | > 9.00

Ask | # iterate: CN(C)C(=O)NCCCC(C)(C)CN(CC(O)C(Cc1ccccc1)NC(=O)OC1COC2OCCC12)S(=O)(=O)c1ccc2c(c1)OCCO2 (stereo not drawn) [Compound 268]
Reply | > 9.00

###

Tested on: HIV-1 (strain IIIB)
Procedure details: microbe, parasite or virus in culture
Type: cell-based
Run conditions: Table 12; anti-viral potency in MT-4 cells; read-out: IC50
Entries and their measured IC50 follow.

Below, 3 compounds whose answers are already recorded.
CC(C)(CCC#N)CN(CC(O)[C@H](Cc1ccccc1)NC(=O)OC1COC2OCCC12)S(=O)(=O)c1cccc(N)c1 (stereo partly shown) [Compound 16]; ≤ 100 nM
COc1ccc(S(=O)(=O)N(CCCCC2(C)OCCO2)C[C@@H](O)[C@H](Cc2ccccc2)NC(=O)OC(C)(C)C)cc1 [Compound 204]; 500 to 1000 nM
COc1ccc(S(=O)(=O)N(C[C@@H](O)[C@H](Cc2ccccc2)NC(=O)C(C)CS(C)(=O)=O)CC(C)(C)CCC#N)cc1 (stereo partly shown) [Compound 22]; 100 to 500 nM

Here is another compound to look at.
Ask | What value of measured IC50 is listed for CC(C)(CCC#N)CN(CC(O)C(Cc1ccccc1)NC(=O)OC1COC2OCCC12)S(=O)(=O)c1ccc2c(c1)OCCO2 (stereo not shown) [Compound 41] ?
Reply | ≤ 100 nM

Data origin, for the record: patent US6617350B2
